Each recorded value in this set is attributed to PubChem BioAssay.

# experiment-description: viability profiling in RPMI8226 myeloma cells – cell-based, resazurin fluorescence, basal, 24 h, PK04 Diversity Set, profiling panel (AID 1180);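 also: RPMI8826 multiple myeloma cell line at 5000 cells per well; test concentration not given here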
# test-settings: higher = more signal
recorded-metric: z-score
Reply with just the number.

Recorded z-score for "Cc1ccc([C@H]2C(C(=O)O)=C[C@@H](C(C)C)N2S(=O)(=O)c2ccc(C)cc2)cc1" , please? -1.4

One more compound: "O=C(CS)NCCCCCNC(=O)[C@H]1C[C@H]2C(=O)N[C@@H](Cc3ccccc3)C(=O)N2[C@H]1c1cccc(OCCO)c1" 0.889

Do the same for CN1C(=O)C2C=CC(C(O)C(C)(C)C)N(Nc3ccccc3)C2C1=O (configuration not stated) please -0.444

// query: O=C(NCC(O)CO)[C@]1(CCS(=O)(=O)c2ccccc2)N=C(c2ccc(OCCCO)cc2)O[C@@H]1c1ccccc1 (some centres not stated) 0.0882

How about this compound: "O=c1cccc(-c2ccccc2)o1" -0.156

Now this one: C=CCC(OC(C)=O)[C@@H]1[C@@H](N(Cc2cc3ccccc3o2)C(=O)c2cccc3ccccc23)c2cc(OCCCO)ccc2N1C(=O)Cc1ccc(OC)cc1 (some centres not stated) -1.17

Query "[N-]=[N+]=Nc1ccccc1[C@@H]1OC(c2ccc(OCCCO)cc2)=N[C@]1(CCS(=O)(=O)c1ccccc1)C(=O)O" next 0.205

Continue with "C=CC[C@]1(C(=O)NCCN2CCOCC2)N=C(c2ccc(OCCCO)cc2)O[C@H]1c1ccccc1N=[N+]=[N-]" -0.414

Now consider "CCCC[C@H]1OB(O)C[C@H]2C1=C(COc1ccccc1)C[C@H]1C(=O)N(Cc3ccccc3)C(=O)[C@H]12" and answer again. 0.421

Request: "CC(C)N1C(=O)c2ccccc2[C@](C)(C(=O)NC2CC2)[C@@H]1c1ccc(CO)cc1" 0.798

Same lookup for "OCCCc1cc[n+](Cc2cccc(OC(F)(F)F)c2)cc1" , please. -0.326

Try this compound next: O=C1C2C=CC(C(O)c3ccc(B(O)O)cc3)N(Nc3ccc([N+](=O)[O-])cc3)C2C(=O)N1c1ccccc1 (configuration not stated) -0.423

O=C1OCC=C[C@H]2OC34C=CCN(c5ccc(Cl)cc5)C(=O)[C@H]3N(CCCO)C(=O)[C@@H]4[C@@H]12 (some centres not stated) ? 0.0679

Ok, now "CC[C@@H]1C=C(C(=O)O)[C@H](c2ccc(C(C)C)cc2)N1S(=O)(=O)c1ccc(C)cc1" -2.23

// repeat for "C=CC[C@@]1(C(=O)NCc2ccccc2)N=C(c2ccc(OCCCO)cc2)O[C@@H]1c1ccccc1CN=[N+]=[N-]" and report -1.45

Continue with "C=CCN1Cc2ccccc2C[C@@]2(COC(c3ccc(OCCCO)cc3)=N2)C1=O" -4.61

Quick one: "O=C1C[C@@](C(=O)O)(c2ccc([N+](=O)[O-])cc2)[C@@H](c2ccc(CO)cc2I)N1CC12CC3CC(CC(C3)C1)C2" -6
